System: Escherichia coli TOP10
Assay: shrunken log2 fold change of peptide-encoding DNA abundance (4.5 h post-induction vs induction); higher = less antimicrobial activity (less host growth inhibition)
Settings: time post-induction: 4.5 h; library: site-saturation at positions 5, 18, 19, 20
Note to self: values exactly at -0.06 are 1. So shrunken log2 fold change at or above -0.06 is 1, below is -1.

Answered cases to consult:
# SEQUENCE DATA, QUALITATIVE LABEL
data = [
    ("RRIRDRPPRLPRPRPRPNPNPRP", -1),
    ("RRIRSRPPRLPRPRPRPIDYPRP", 1),
    ("RRIRDRPPRLPRPRPRPKYWPRP", -1),
    ("RRIRFRPPRLPRPRPRPALAPRP", 1),
    ("RRIRMRPPRLPRPRPRPCQWPRP", -1),
    ("RRIRMRPPRLPRPRPRPMVRPRP", 1),
]

Threshold query (shrunken log2 fold change >= -0.06) on RRIRDRPPRLPRPRPRPRTMPRP 1

Next up: RRIRARPPRLPRPRPRPGTNPRP 1

====

Tested on: Escherichia coli TOP10
Assay: shrunken log2 fold change of peptide-encoding DNA abundance (4.5 h post-induction vs induction); higher = less antimicrobial activity (less host growth inhibition)
Details: time post-induction: 4.5 h; library: site-saturation at positions 5, 18, 19, 20
EXPERIMENTAL ENDPOINT: shrunken log2 fold change

Completed entries (count: 7):
# SEQUENCE DATA, RESULT VALUE
rows = [
    ("RRIRKRPPRLPRPRPRPKDDPRP", 0.0898),
    ("RRIRYRPPRLPRPRPRPHTGPRP", -1.06),
    ("RRIRYRPPRLPRPRPRPVSVPRP", -0.0879),
    ("RRIRFRPPRLPRPRPRPIPPPRP", 1.09),
    ("RRIRLRPPRLPRPRPRPLKMPRP", 1.29),
    ("RRIRFRPPRLPRPRPRPQIMPRP", -0.736),
    ("RRIRQRPPRLPRPRPRPEPSPRP", 0.102),
]

// switching to the query sequence
I would be grateful if you could share the reported shrunken log2 fold change for RRIRGRPPRLPRPRPRPSFNPRP . 0.131

====

Tested on: Escherichia coli TOP10
Test: shrunken log2 fold change of peptide-encoding DNA abundance (4.5 h post-induction vs induction); higher = less antimicrobial activity (less host growth inhibition)
Conditions: time post-induction: 4.5 h; library: site-saturation at positions 5, 18, 19, 20
The threshold is inclusive: shrunken log2 fold change of exactly -0.008 counts as 1; values below receive -1.

# SEQUENCE DATA, QUALITATIVE LABEL
rows = [
    ("RRIRFRPPRLPRPRPRPGPPPRP", 1),
    ("RRIRNRPPRLPRPRPRPIYCPRP", -1),
    ("RRIRNRPPRLPRPRPRPKKTPRP", -1),
    ("RRIRKRPPRLPRPRPRPWTCPRP", -1),
    ("RRIRQRPPRLPRPRPRPLHEPRP", 1),
]

Confirm if shrunken log2 fold change reported for the sequence RRIRSRPPRLPRPRPRPIWCPRP is -0.008 or above. -1

Can you check RRIRLRPPRLPRPRPRPWDVPRP next? -1

Continue with RRIRTRPPRLPRPRPRPGWPPRP 1

====

Catalogue of shrunken log2 fold change values
System: Escherichia coli TOP10
Test: shrunken log2 fold change of peptide-encoding DNA abundance (4.5 h post-induction vs induction); higher = less antimicrobial activity (less host growth inhibition)
Conditions: time post-induction: 4.5 h; library: site-saturation at positions 5, 18, 19, 20
Number only, no unit.

Example entries begin here.
# SEQUENCE DATA, shrunken log2 fold change
data = [
    ("RRIRRRPPRLPRPRPRPPECPRP", 0.222),
    ("RRIRERPPRLPRPRPRPTCDPRP", 0.158),
]

Okay, now this sequence:
Reported shrunken log2 fold change for RRIRIRPPRLPRPRPRPPDEPRP : what is it? -0.0174

====

System: Escherichia coli TOP10
Assay: shrunken log2 fold change of peptide-encoding DNA abundance (4.5 h post-induction vs induction); higher = less antimicrobial activity (less host growth inhibition)
Details: time post-induction: 4.5 h; library: site-saturation at positions 5, 18, 19, 20
EXPERIMENTAL ENDPOINT: shrunken log2 fold change
Number only, no unit.

Below, each entry is followed by its recorded shrunken log2 fold change result.
# SEQUENCE DATA, shrunken log2 fold change
records = [
    ("RRIRLRPPRLPRPRPRPSPAPRP", 0.254),
    ("RRIRRRPPRLPRPRPRPTWVPRP", 0.275),
    ("RRIRRRPPRLPRPRPRPFTNPRP", 0.103),
    ("RRIRQRPPRLPRPRPRPLCGPRP", 0.0478),
    ("RRIRQRPPRLPRPRPRPVIIPRP", -1.01),
    ("RRIRTRPPRLPRPRPRPKNRPRP", -0.0821),
    ("RRIRRRPPRLPRPRPRPRTPPRP", 0.616),
    ("RRIRDRPPRLPRPRPRPVKMPRP", -0.0606),
]

Given the sequence RRIRQRPPRLPRPRPRPRVVPRP , what is its reported shrunken log2 fold change? 0.0149

Next record, please: RRIRKRPPRLPRPRPRPMQRPRP 0.744

====

System: Escherichia coli TOP10
Test: shrunken log2 fold change of peptide-encoding DNA abundance (4.5 h post-induction vs induction); higher = less antimicrobial activity (less host growth inhibition)
Conditions: time post-induction: 4.5 h; library: site-saturation at positions 5, 18, 19, 20
# shrunken log2 fold change per entry
No unit in the answer, please; the number alone is enough.

// solved cases for shrunken log2 fold change follow
# SEQUENCE DATA, STUDY TARGET, RESULT VALUE
data = [
    ("RRIRTRPPRLPRPRPRPEAYPRP", "Escherichia coli TOP10", -0.12),
    ("RRIRRRPPRLPRPRPRPDRVPRP", "Escherichia coli TOP10", -0.203),
    ("RRIRARPPRLPRPRPRPMENPRP", "Escherichia coli TOP10", 0.423),
]

Name the reported shrunken log2 fold change value associated with the sequence RRIRFRPPRLPRPRPRPAQGPRP -0.00447

What do we get for RRIRARPPRLPRPRPRPRFNPRP ? 0.269

Query RRIRDRPPRLPRPRPRPPRKPRP next 0.758

Do the same for RRIRYRPPRLPRPRPRPMKMPRP please -0.528

Moving on to RRIRSRPPRLPRPRPRPGQRPRP 0.0367

One more sequence: RRIRWRPPRLPRPRPRPKILPRP -0.0469

Follow-up entry: RRIRLRPPRLPRPRPRPHSFPRP 0.0434

====

Test system: Escherichia coli TOP10
Experiment: shrunken log2 fold change of peptide-encoding DNA abundance (4.5 h post-induction vs induction); higher = less antimicrobial activity (less host growth inhibition)
Settings: time post-induction: 4.5 h; library: site-saturation at positions 5, 18, 19, 20
EXPERIMENTAL ENDPOINT: shrunken log2 fold change
Number only, please.

Here's what some known entries look like.
# SEQUENCE DATA, STUDY TARGET, RESULT VALUE
rows = [
    ("RRIRIRPPRLPRPRPRPEETPRP", "Escherichia coli TOP10", -0.00208),
    ("RRIRTRPPRLPRPRPRPPTYPRP", "Escherichia coli TOP10", -0.149),
    ("RRIRTRPPRLPRPRPRPYNGPRP", "Escherichia coli TOP10", -0.203),
]

Sample RRIRGRPPRLPRPRPRPLCPPRP — what was its shrunken log2 fold change? 0.422

Try this sequence too: RRIRLRPPRLPRPRPRPLDKPRP -0.122

====

System: Escherichia coli TOP10;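 further: peptides expressed intracellularly from a pBAD plasmid library in pooled LB shake-flask culture, induced with 0.3% L-arabinose, DNA abundance read by NGS, three biological replicates, DESeq2 with apeglm shrinkage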
Assay: shrunken log2 fold change of peptide-encoding DNA abundance (4.5 h post-induction vs induction); higher = less antimicrobial activity (less host growth inhibition)
Conditions: time post-induction: 4.5 h; library: site-saturation at positions 5, 18, 19, 20
Think of 0.2 as a floor: if shrunken log2 fold change stands on it or above, it is T; beneath it, F.

# count of solved cases: 4
# SEQUENCE DATA, QUALITATIVE LABEL
rows = [
    ("RRIRDRPPRLPRPRPRPPLGPRP", "T"),
    ("RRIRYRPPRLPRPRPRPYPVPRP", "F"),
    ("RRIRYRPPRLPRPRPRPPQSPRP", "F"),
    ("RRIRKRPPRLPRPRPRPTKQPRP", "F"),
]

Dear colleague, could you confirm whether RRIRMRPPRLPRPRPRPPTTPRP has shrunken log2 fold change at or above 0.2? T

Then RRIRKRPPRLPRPRPRPCPRPRP ? F

Then RRIRLRPPRLPRPRPRPVMMPRP ? F

Next: RRIRYRPPRLPRPRPRPGFRPRP F

Also RRIRNRPPRLPRPRPRPETYPRP ? F

Proceed to RRIRCRPPRLPRPRPRPMHFPRP F

Same question for RRIRMRPPRLPRPRPRPIAHPRP please. F

What do you get for RRIRDRPPRLPRPRPRPRWQPRP ? F
